tested on: SK-MEL-2; assay: NCI tumour cell line growth inhibition, 48 h
The source made the active and inactive calls. No stated cut-off is given here; in the data, active = GI50 up to about 1.1 µM and inactive = higher.
// one of active, inactive, no free text

# count of solved cases: 3
Compound	System Tested	Qualitative Label
CC(C)CNCCc1ccccn1	SK-MEL-2	inactive
Nc1cccc(OCc2nc(N)nc(N)c2-c2ccc(Cl)cc2)c1	SK-MEL-2	inactive
CCOc1c(Br)cc(Br)cc1C=C(C#N)C#N	SK-MEL-2	inactive

GET /call?item= O=c1[nH]c(N/N=C\C(O)C(O)C(O)CO)nc2ccccc12 (stereo not given) returns the recorded outcome of this test.
inactive

GET /call?item= CCOC(=O)c1c(N2CCCC2)[nH]c(=O)c(C(c2ccco2)c2c(O)c(C(=O)OCC)c(N3CCCC3)[nH]c2=O)c1O returns the recorded outcome of this test.
inactive

GET /call?item= C/C(CCN(C)C)=N/O returns the recorded outcome of this test.
inactive

###

Record form. Attribute: GI50. Fill in for each entry.
tested on: NCI-H226; assay: NCI tumour cell line growth inhibition, 48 h
Calls of active or inactive are those of the source. No stated cut-off is given here; in the data, active = GI50 up to about 1.1 µM and inactive = higher.

Answered cases to consult:
In [3]: df
Out[3]:
                                   compound             observed
0  COC(=O)C1SC[C@H]2C(=O)N(c3ccccc3)C(=O)N12 (some centres undefined)  > 100 µM (inactive)
1  COC(=O)[C@H](C)NC(=O)[C@H](NS(=O)(=O)c1nc2ccccc2s1)c1ccccc1   14.5 µM (inactive)
2               Cc1nc(-c2cc3ccccc3oc2=O)cs1   30.3 µM (inactive)

Now for a further compound.
// fetch GI50 given entry C=CCNC(=S)N/C=C(\C#N)C(N)=O
> 100 µM (inactive)

###

system: NCI/ADR-RES; experiment: NCI tumour cell line growth inhibition, 48 h
Activity calls are given as the source filed them. Rule as the data show it: active = GI50 up to about 1.1 µM and inactive = higher.
Parameter: GI50

Answered cases to consult:
                              smiles_entry             observed
0  c1ccc(/N=C2\SC3=NCCN3\C2=N/c2ccccc2)cc1     28 µM (inactive)
1                   C=CCOCn1cnc2c(N)ncnc21  > 100 µM (inactive)

// fetch GI50 given entry COc1ccc2c(c1)C(=O)[C@@](Nc1ccc(C=O)cc1)(OC)[C@@](OC)(c1ccc([N+](=O)[O-])cc1)O2
> 10 µM (inactive)

###

test system: SF-539; assay: NCI tumour cell line growth inhibition, 48 h
Active and inactive are the calls of the source. Rule as the data show it: active = GI50 up to about 1.1 µM and inactive = higher.
// one of YES = active, NO = inactive, no free text

# count of solved cases: 5
In [3]: df
Out[3]:
                                   molecule  qualitative_label
0  CC(=O)/C=C/c1ccc(C2CC(C)=Nc3c(ccc4c3C(=O)c3ccccc3C4=O)N2)cc1 (stereo not drawn)                 NO
1                O=C1NC2(CCCCC2)C2=C1CCCCC2                 NO
2  CCOC(=O)C1N(S(=O)(=O)c2ccc(C)cc2)CCC12c1ccccc1N(C(C)=O)C2c1ccc(OC)c(OC)c1 (stereo not drawn)                 NO
3      Cn1cnc([N+](=O)[O-])c1Sc1nc2cccnc2s1                 NO
4  COc1ccc(Nc2nc3cc(C(F)(F)F)ccc3nc2C(=O)O)cc1OC                 NO

GET /call?item= CCCN(CCC)c1c([N+](=O)[O-])cc(C(N)=O)cc1[N+](=O)[O-] returns the recorded outcome of this test.
NO

GET /call?item= O=C(CC12C3C4C1C1C2C3C41CC(=O)NO)NO (stereo not drawn) returns the recorded outcome of this test.
NO

GET /call?item= COc1cc(/C=C/C=C2\CC/C(=C\C=C\c3ccc(O)c(OC)c3)C2=O)ccc1O returns the recorded outcome of this test.
NO
